Assay: Tested for 50% of inhibition of Osteoclastic acid phosphatase (OAP) activity, determined using dose-response curve
measurement_name: IC50 (µM)

[
  {
    "compound": "O=P(O)(O)C(Cc1ccccc1)c1cccc2ccccc12 (configuration not stated)",
    "measurement_name": "IC50",
    "unit_abbreviation": "µM",
    "value_observed": 21
  }
]

1 = O=P(O)(O)C(Cc1ccc(-c2ccccc2)cc1)c1cccc2ccccc12 (configuration not stated)
2 = O=P(O)(O)C(Cc1ccc(Cl)cc1)c1cccc2ccccc12 (configuration not stated)
Ask: Lower value for measured IC50? Options: 1 , 2 Reply briefly: the label of your chosen item.
Result: 1

---

Test: Tested for 50% of inhibition of Osteoclastic acid phosphatase (OAP) activity, determined using dose-response curve
pIC50: −log10 of the molar value.
measurement_name: pIC50

[
  {
    "compound": "Cc1ccc2ccccc2c1C(CC1CCCCC1)P(=O)(O)O (centres undefined)",
    "value_observed": 4.96
  }
]

a = O=C(c1ccccc1)C(C(=O)c1ccccc1)(c1cccc2ccccc12)P(=O)(O)O
b = O=P(O)(O)C(CC1CCCCC1)c1cccc2ccccc12 (centres undefined)
c = O=P(O)(O)Cc1cccc2ccccc12 [naphthalen-1-ylmethylphosphonic acid]
Ask: Sort these compounds on pIC50 so the largest reading comes first. Order the labels as requested and list them.
Result: a, b, c
